Sourced from PubChem BioAssay

- protocol_description: inhibitors of mitochondrial cytochrome c release, biochemical, purified mitochondria (AID 1603);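 also: mouse liver mitochondria challenged with calcium chloride; signal normalized to the plate average as 100%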
- experimental_conditions: stronger effect = lower value
value_type: cytochrome c release ratio
// return a plain number; no unit text

cytochrome c release ratio reported for this molecule CC1(C)S[C@@H]2[C@H](NC(=O)COc3ccccc3)C(=O)N2[C@H]1C(=O)O : 0.65

cytochrome c release ratio reported for this molecule NC(=O)c1cc[n+](CC2=C(C(=O)O)N3C(=O)C(NC(=O)C(c4ccccc4)S(=O)(=O)[O-])C3SC2)cc1 (stereo not drawn) : 0.92

cytochrome c release ratio reported for this molecule CN[C@@H]1C(O)[C@@H](O[C@@H]2[C@@H](O)[C@H](O[C@H]3OC(CN)=CC[C@H]3N)[C@@H](N)C[C@H]2N)OC[C@]1(C)O (stereo partly drawn) : 1.22

cytochrome c release ratio reported for this molecule NC(Cc1ccc(F)cc1)C(=O)O (stereo not drawn) : 0.78

cytochrome c release ratio reported for this molecule Nc1ccn(C2O[C@H](CO)[C@@H](O)[C@H]2O)c(=O)n1 (stereo partly drawn) : 1.18

cytochrome c release ratio reported for this molecule CCOC(=O)OC(C)OC(=O)C1N2C(=O)C(NC(=O)[C@H](N)c3ccccc3)C2SC1(C)C (stereo partly drawn) : 0.96

cytochrome c release ratio reported for this molecule C[C@@H]1CC2C3C[C@H](F)C4=CC(=O)C=C[C@]4(C)[C@@]3(F)[C@@H](O)C[C@]2(C)[C@@]1(O)C(=O)CO (stereo partly drawn) : 1.19

cytochrome c release ratio reported for this molecule NC[C@@H]1O[C@H](O[C@@H]2[C@@H](CO)OC(O[C@@H]3[C@@H](O)[C@H](N)C[C@H](N)[C@H]3OC3O[C@H](CN)[C@@H](O)[C@H](O)[C@H]3N)[C@@H]2O)[C@H](N)[C@@H](O)[C@@H]1O (stereo partly drawn) : 0.82

---

- system: L-lactate dehydrogenase (Plasmodium falciparum (isolate CDC / Honduras))
- protocol_description: PfLDH activity inhibition – cell lysate, 3D7 strain, counter-screen for P. falciparum growth inhibition project (AID 2304);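 also: 0% = vehicle and 100% = reference inhibitor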
- experimental_conditions: P. falciparum 3D7 crude extract, LDH APAD/NBT absorbance; at 2 µM; stronger effect = higher value
I'd appreciate it if you could supply inhibition values for the items below.
Write the answer as a number in %, unit excluded.

inhibition reported for this molecule CCc1cc2c(Sc3nc4ccccc4[nH]3)ncnc2s1 : 2

inhibition reported for this molecule CNC(=O)c1ccccc1Nc1nc(Nc2ccc(CCN3CCN(C)CC3)cc2)ncc1Cl : 5

inhibition reported for this molecule CCOc1cc2ncnc(Nc3ccc(OCc4ccccc4OC)c(OC)c3)c2cc1OCC : -5

inhibition reported for this molecule COc1cc(C(=O)N2CCOC(CCN3CCC[C@H]3C(=O)Nc3ccccc3)(c3ccc(Cl)c(Cl)c3)C2)cc(OC)c1OC (stereo not given in full) : -2

inhibition reported for this molecule CC(=O)N1N=C(c2[nH]c3ccc(Br)cc3c2C)OC1c1ccccc1 (stereo not given) : 0

inhibition reported for this molecule COc1cc2c(cc1OC)C(C)(C)CN1Cc3c(c(CO)c(OC)c(OC)c3OC)CC21 (stereo not given) : 2

inhibition reported for this molecule N#Cc1cccc(Nc2nccc(NCC(O)c3cccc(C(F)(F)F)c3)n2)c1 (stereo not given) : -3

inhibition reported for this molecule Cc1nc(N)nc(N)c1OCc1ccc(Cl)c(Cl)c1 : -2

inhibition reported for this molecule c1ccc(COc2ccc(Nc3ncnc4cnc(-c5ccc(CNc6cccnc6)o5)cc34)cc2)cc1 : 3

inhibition reported for this molecule CC1CN=C(c2ccc(NC(=O)Nc3ccc(C4=NCC(C)N4)cc3)cc2)N1 (stereo not given) : 0

---

- System: F380Y/beta2Delta
- protocol_description: modulators of BK channel variants, profiling panel, selectivity assay, cell-based, U2OS BacMam, thallium flux, beta subunits (AID 1259406);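 also: initial slope of Thallos dye fluorescence rise after thallium is added; log ratio against the mean of 0.3% DMSO vehicle wells on the same plate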
- experimental_conditions: at 30 µM
Activity calls are given as the source filed them.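 The calls were made as follows: active = thallium flux through the channel raised or lowered by more than 3 SD from vehicle-only wells, actives on both sides; inactive = the rest.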
value_type: log fold change Tl+ flux

log fold change Tl+ flux reported for this compound O=C(O)c1cccc(CSc2cccs2)c1 : 0.0398 (inactive)

log fold change Tl+ flux reported for this compound O=C(NCc1ccc2c(c1)OCO2)C1CCN(C(=O)OCc2ccccc2)CC1 : -0.059 (inactive)

log fold change Tl+ flux reported for this compound CCOC(=O)c1ccc(NC(=O)CCC(=O)O)cc1 : -0.0505 (inactive)

log fold change Tl+ flux reported for this compound CC(=O)OCC(=O)C12OC3(CCCC3)OC1CC1C3CCC4=CC(=O)C=CC4(C)C3(F)C(O)CC12C (configuration not stated) : 0.0485 (inactive)

log fold change Tl+ flux reported for this compound CC(=O)Nc1ccc(S(=O)(=O)C[N+](=O)[O-])cc1 : 0.0255 (inactive)

log fold change Tl+ flux reported for this compound C[C@]12CC3CC(N)(C1)C[C@@](C)(C3)C2 : 0.033 (inactive)

log fold change Tl+ flux reported for this compound CCOC(=O)CCSC1=NC(c2cccs2)C(C(=O)OCC)=C(C)N1 (configuration not stated) : -0.0693 (inactive)

log fold change Tl+ flux reported for this compound CC(=O)NC[C@H]1CN(c2ccc(N3CCOCC3)c(F)c2)C(=O)O1 : -0.0137 (inactive)

log fold change Tl+ flux reported for this compound CC(C)(C)c1ccc(Oc2ccc(NC(=O)Nc3cccs3)cn2)cc1 : -0.0118 (inactive)

log fold change Tl+ flux reported for this compound Cc1ccc(S(=O)(=O)N2Cc3ccccc3C(C)CC23CCCCC3)cc1 (configuration not stated) : -0.0539 (inactive)

log fold change Tl+ flux reported for this compound CC1c2cccc(O)c2C(O)=C2C(=O)[C@]3(O)C(O)=C(C(N)=O)C(=O)[C@@H](N(C)C)[C@@H]3C[C@@H]21 (some centres not stated) : 0.00306 (inactive)

log fold change Tl+ flux reported for this compound O=C(CCn1nc(-c2ccc(F)cc2)ccc1=O)NCc1ccccc1 : 0.06 (inactive)

log fold change Tl+ flux reported for this compound CN(C)[C@@H]1C(=O)C(C(=O)NCN2CCCC2)=C(O)[C@@]2(O)C(=O)C3=C(O)c4c(O)cccc4[C@@](C)(O)C3CC12 (some centres not stated) : -0.0371 (inactive)

log fold change Tl+ flux reported for this compound CS(=O)(=O)C(C#N)=NNc1ccc(OC(F)(F)F)cc1 : 0.0975 (inactive)

log fold change Tl+ flux reported for this compound CN(C)CCc1c[nH]c2ccc(Cn3cncn3)cc12 : 0 (inactive)

log fold change Tl+ flux reported for this compound CN1[C@@H]2CC[C@H]1CC(OC(=O)C(CO)c1ccccc1)C2 (some centres not stated) : 0.00535 (inactive)

log fold change Tl+ flux reported for this compound Cc1cc(Nc2ccc(F)cc2F)nc(SCc2c(Cl)cccc2Cl)n1 : -0.0422 (inactive)

log fold change Tl+ flux reported for this compound O=c1c(Cl)c(N2CCOCC2)cnn1-c1cnc2ccccc2n1 : 0.0635 (inactive)

log fold change Tl+ flux reported for this compound Cc1cc(NC(=S)N2CCCCCC2)ccc1Br : -0.0137 (inactive)

log fold change Tl+ flux reported for this compound Cc1cc(NS(=O)(=O)c2ccc(NC(=O)c3nccnc3C(=O)O)cc2)no1 : -0.054 (inactive)

log fold change Tl+ flux reported for this compound O=C(Cn1nnc(N2CCCC2)n1)NN=Cc1ccc(Cl)cc1 : -0.0415 (inactive)

log fold change Tl+ flux reported for this compound O=S(=O)(Oc1ccc(F)cc1F)c1cccc(S(=O)(=O)Oc2ccc(F)cc2F)c1 : 0.00173 (inactive)

---

- system: L-lactate dehydrogenase (Plasmodium falciparum (isolate CDC / Honduras)) (UniProt Q27743)
- Sequence (Q27743 whole entry, looked up): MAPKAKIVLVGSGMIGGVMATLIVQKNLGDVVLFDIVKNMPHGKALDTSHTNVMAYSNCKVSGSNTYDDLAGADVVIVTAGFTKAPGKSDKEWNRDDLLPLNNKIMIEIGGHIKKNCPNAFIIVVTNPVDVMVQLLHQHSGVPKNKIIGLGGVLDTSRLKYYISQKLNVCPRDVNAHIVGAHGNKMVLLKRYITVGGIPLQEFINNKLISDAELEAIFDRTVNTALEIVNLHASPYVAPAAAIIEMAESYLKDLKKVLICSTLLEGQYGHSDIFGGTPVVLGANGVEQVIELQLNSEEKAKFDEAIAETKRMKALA
- protocol_description: PfLDH activity inhibition – cell lysate, 3D7 strain, counter-screen for P. falciparum growth inhibition project (AID 2304);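 also: 0% = vehicle and 100% = reference inhibitor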
- experimental_conditions: P. falciparum 3D7 crude extract, LDH APAD/NBT absorbance; at 2 µM; stronger effect = higher value
I'd appreciate it if you could supply inhibition values for the items below.
Write the answer as a number in %, unit excluded.

inhibition reported for this compound Cc1cc(N(C)C)nc(Nc2ccc(NC(=O)c3c(F)cccc3Cl)cc2)n1 : 4

inhibition reported for this compound CC(C)NCc1ccc(-c2ccc(NC(=O)c3ccc(C#N)cc3)cc2)cc1 : -2

inhibition reported for this compound CN(Cc1cnc2nc(N)nc(N)c2n1)c1ccc(C(=O)N[C@H](CCC(=O)OC(C)(C)C)C(=O)N[C@@H](CCC(=O)OC(C)(C)C)C(=O)OC(C)(C)C)cc1 : -6

inhibition reported for this compound COc1ccc2nccc([C@@H](O)CN3CCC(NCc4ccc5nsnc5c4)CC3)c2c1 : 3

inhibition reported for this compound COc1ccc(Cl)cc1C(=O)Nc1ccc(-c2nc3ccccc3[nH]2)cc1 : -7

inhibition reported for this compound Cc1cccc2[nH]c(-c3ccc(-c4cccc(NC(=O)c5cncn5C)c4)cc3)nc12 : 2

inhibition reported for this compound CC(C)Cn1c(N)cc(=O)n(C)c1=O : 3

inhibition reported for this compound N#Cc1ccc(-c2cnc3ccc(NCCc4cccnc4)nn23)cc1 : 6

inhibition reported for this compound O=C(c1ccco1)N1CCN(c2ccc([N+](=O)[O-])c(NC3CC3)c2)CC1 : 0

inhibition reported for this compound CCNC(C)(C)CN(Cc1ccc(-c2ccc(C(F)(F)F)cc2)cc1)C(=O)Cn1c(CCc2cccc(F)c2F)nc(=O)c2ccccc21 : -7

inhibition reported for this compound CC(C)(C)OC(=O)NCc1ccc(Nc2nnc(-c3cccc(C(=O)NCc4cc(C(F)(F)F)cc(C(F)(F)F)c4)c3)o2)cc1 : 0

inhibition reported for this compound NC1=NC2(CCCCC2)N(OCCCCCCc2ccccc2)C(N)=N1 : -2

inhibition reported for this compound O=C(Nc1ccc(Cl)cc1)Nc1cccc(-c2ccc(-c3nc4ccc(F)cc4[nH]3)cc2)c1 : -1

inhibition reported for this compound CCn1c(-c2nonc2N)nc2c(-c3cccc(NC(=O)Nc4ccccc4OC)c3)ncc(OCCCN)c21 : -2

inhibition reported for this compound CC1CCc2sc(-c3nnc(SC(C)C(=O)N4CCCC4)o3)cc2C1 (centres undefined) : 2

inhibition reported for this compound CCCCCCOc1ccc2ccccc2c1CNCCCCCCNCc1c(OCCCCCC)ccc2ccccc12 : 6

inhibition reported for this compound Cc1[nH]c(C)c(-c2ccc(Oc3ccc(OC(F)(F)F)cc3)cc2)c(=O)c1I : -3

inhibition reported for this compound O=c1cc(NCCCNC2CCCc3c2cc(Cl)c(Cl)c3Cl)[nH]c2ccccc12 (centres undefined) : -10

inhibition reported for this compound Nc1nc(N)c2c(Sc3ccc(F)cc3)cccc2n1 : 3

inhibition reported for this compound CC(=O)Nc1ccc(COc2ccc(Nc3ccnc4cc(-c5ccccn5)ccc34)cc2)cc1 : 3

inhibition reported for this compound O=[N+]([O-])c1ccccc1C=NNc1ccnc2ccccc12 : 2

inhibition reported for this compound CN(C)CCN(C)Cc1ccc(-c2ccc3c(Nc4ccc(Oc5ccccc5)cc4)ccnc3c2)o1 : -4

inhibition reported for this compound FC(F)(F)Oc1ccc(-c2cnc3ccc(NCc4ccncc4)nn23)cc1 : -3

inhibition reported for this compound Cc1csc2nc(C(C)c3ccc(NC(=O)c4cccs4)cc3)oc(=O)c12 (centres undefined) : -3

inhibition reported for this compound CCCCN(CCCC)Cc1cc(Nc2ccnc3cc(Cl)ccc23)ccc1O : -1

inhibition reported for this compound N#Cc1cccc(C(=O)Nc2cccc(-c3ccc(CN4CCC(O)CC4)cc3)c2)c1 : 1

inhibition reported for this compound Cn1c(Nc2cc(C(C)(C)C)on2)nc2cc(Nc3ccnc(Nc4cccc(CS(C)(=O)=O)c4)n3)ccc21 : -4

inhibition reported for this compound O=C(/C=C/c1ccc(Cl)c(Cl)c1)NCCCCCN1CCCN(C(=O)Nc2ccc(C(F)(F)F)cc2)CC1 : 3

inhibition reported for this compound CN(C)CCN(C)Cc1nc(-c2ccc3c(Nc4ccc(Oc5ccccc5)cc4)ccnc3c2)cs1 : -3

inhibition reported for this compound CCOc1cccc(C(=O)Nc2nonc2-c2ccc(OC)c(OC)c2)c1 : 4

inhibition reported for this compound Oc1cc2c(cc1CN1CCN(Cc3ccc(Cl)s3)CC1)CCC2 : -3

inhibition reported for this compound Oc1ccc2c(CNC3CCCCC3)c(O)ccc2c1CNC1CCCCC1 : -4

inhibition reported for this compound O=C(NCCc1cccc(Cl)c1Cl)c1ccc(N2CCN(c3ccncc3)CC2)nc1 : 2

inhibition reported for this compound CCCCCCCN(Cc1ccc(OC(C)(C)C(=O)OCC)cc1)C(=O)Nc1ccc(Cl)cc1OCC : 1

inhibition reported for this compound CC(C)Cn1ccc2c3c(N)nc(N)nc3ccc21 : 1

inhibition reported for this compound CN1CCCC(CN2CCN(Cc3cccc(-c4cccc(-c5nc6ccccc6[nH]5)c4)c3)CC2)C1 (centres undefined) : -8

inhibition reported for this compound Cc1cc2nc(-c3ccc(OCC(=O)NCc4cccc(C(F)(F)F)c4)cc3)[nH]c2cc1C : -4

inhibition reported for this compound CC(NC(=O)c1ccc(O)c(-c2ccc(Cl)c(Cl)c2)c1)C(=O)NC1CCCCC1 (centres undefined) : -2

inhibition reported for this compound CC(C)CNCc1cccc(-c2ccccc2CNC2CCN(Cc3ccccc3)CC2)c1 : -6
